Counter-ions that a name gives are not always drawn.
Reported pIC50 for target or system ERK-2 kinase (Homo sapiens, UniProt P28482), by entry.
In plain terms, pIC50 is the concentration in mol/L turned into minus its base-10 logarithm.

Look over these answered cases.
Problem: Find the recorded pIC50 belonging to Cl.Clc1cccc(-c2cn[nH]c2-c2c[nH]c3ncccc23)c1 [Example 1, Hydrochloride] and report it.
Solution: 5.84

Problem: Then this compound: Clc1cccc(-c2cn[nH]c2-c2c[nH]c3nc(NCc4ccccc4)ccc23)c1 [Example 3, Dihydrochloride]
Solution: 5.65

# ---- query compound ----
Problem: Find the recorded pIC50 belonging to c1ccc(-c2cn[nH]c2-c2c[nH]c3ncccc23)cc1 [Example 2, Hydrochloride] and report it.
Solution: 5.01
